These entries and their values trace back to the supplement of paper PMC11451515.

Listing of recorded cell viability by entry.
Tested on: P12-Ichikawa
ASSAY SUMMARY: cell viability relative to DMSO control; higher = less cytotoxic
MEASUREMENT PARAMETERS: RPMI 5 mM glucose + 10% dialyzed FBS; 48 h; 0.569 µM
Provide only the numeric value, understood in %.

Worked set:
INSERT INTO measurements (compound, numeric_value) VALUES
  ('O=C(O)[C@H](Cc1c[nH]c2ccccc12)N1C(=O)c2ccccc2C1=O', 99),
  ('NC(=O)c1ccc(-c2nc(-c3ccc4c(c3)OCCO4)c(-c3ccccn3)[nH]2)cc1', 121),
  ('COc1cc2ncnc(-n3nc(-c4ccccn4)nc3N)c2cc1OC', 96.2),
  ('COc1cc(N2CCC(C(N)=O)CC2)ccc1Nc1nc(N)c(Cl)c(Nc2ccccc2[S+](=O)([O-])C(C)C)n1', 100),
  ('CCC[C@@H]1C[C@@H](C(=O)N[C@@H]([C@H]2O[C@H](SC)[C@H](O)[C@@H](O)[C@H]2O)[C@@H](C)O)N(C)C1.Cl', 66.4);

Query: Fill in cell viability for record Nc1nc(-c2nn(Cc3ccccc3F)c3ncccc23)nc(N)c1N1CCOCC1
Result: 107

Query: Respond only with cell viability recorded for O=C1Nc2ccccc2/C1=C1\Nc2ccccc2C1=O
Result: 106

Query: Indicate its recorded cell viability; the compound in question is CC/1=C/N([C@@H]2C[C@@H](O)[C@H](CO)O2)C(=O)NC1=O
Result: 81.8

Query: Hello, please tell me recorded cell viability for this one: CC(C)(C)OC(=O)CN(Cc1ccc(Cl)cc1)Cc1ccc([N+](=O)[O-])s1
Result: 87.9

Query: Determine from records and report cell viability for CCCCCCCCCCCC(CC1OC(=O)C1CCCCCC)OC(=O)C(CC(C)C)NC=O (stereo unspecified)
Result: 116

Query: Name the recorded cell viability of the compound listed here: Cc1nc(Nc2ncc(C(=O)Nc3c(C)cccc3Cl)s2)cc(N2CCN(CCO)CC2)n1
Result: 109
